target: ΔF508-CFTR (Homo sapiens, UniProt P13569, DEL508-508); construct: expressed in transfected cells; test: Membrane potential optical assay (FRET voltage-sensor dyes, VIPR), identification of potentiator compounds; assay type: cell-based; settings: Table 3; assay not given; read-out: % Activity (% Efficacy, relative efficacy)
Sequence (P13569 with tags, fused parts or gaps DEL508-508): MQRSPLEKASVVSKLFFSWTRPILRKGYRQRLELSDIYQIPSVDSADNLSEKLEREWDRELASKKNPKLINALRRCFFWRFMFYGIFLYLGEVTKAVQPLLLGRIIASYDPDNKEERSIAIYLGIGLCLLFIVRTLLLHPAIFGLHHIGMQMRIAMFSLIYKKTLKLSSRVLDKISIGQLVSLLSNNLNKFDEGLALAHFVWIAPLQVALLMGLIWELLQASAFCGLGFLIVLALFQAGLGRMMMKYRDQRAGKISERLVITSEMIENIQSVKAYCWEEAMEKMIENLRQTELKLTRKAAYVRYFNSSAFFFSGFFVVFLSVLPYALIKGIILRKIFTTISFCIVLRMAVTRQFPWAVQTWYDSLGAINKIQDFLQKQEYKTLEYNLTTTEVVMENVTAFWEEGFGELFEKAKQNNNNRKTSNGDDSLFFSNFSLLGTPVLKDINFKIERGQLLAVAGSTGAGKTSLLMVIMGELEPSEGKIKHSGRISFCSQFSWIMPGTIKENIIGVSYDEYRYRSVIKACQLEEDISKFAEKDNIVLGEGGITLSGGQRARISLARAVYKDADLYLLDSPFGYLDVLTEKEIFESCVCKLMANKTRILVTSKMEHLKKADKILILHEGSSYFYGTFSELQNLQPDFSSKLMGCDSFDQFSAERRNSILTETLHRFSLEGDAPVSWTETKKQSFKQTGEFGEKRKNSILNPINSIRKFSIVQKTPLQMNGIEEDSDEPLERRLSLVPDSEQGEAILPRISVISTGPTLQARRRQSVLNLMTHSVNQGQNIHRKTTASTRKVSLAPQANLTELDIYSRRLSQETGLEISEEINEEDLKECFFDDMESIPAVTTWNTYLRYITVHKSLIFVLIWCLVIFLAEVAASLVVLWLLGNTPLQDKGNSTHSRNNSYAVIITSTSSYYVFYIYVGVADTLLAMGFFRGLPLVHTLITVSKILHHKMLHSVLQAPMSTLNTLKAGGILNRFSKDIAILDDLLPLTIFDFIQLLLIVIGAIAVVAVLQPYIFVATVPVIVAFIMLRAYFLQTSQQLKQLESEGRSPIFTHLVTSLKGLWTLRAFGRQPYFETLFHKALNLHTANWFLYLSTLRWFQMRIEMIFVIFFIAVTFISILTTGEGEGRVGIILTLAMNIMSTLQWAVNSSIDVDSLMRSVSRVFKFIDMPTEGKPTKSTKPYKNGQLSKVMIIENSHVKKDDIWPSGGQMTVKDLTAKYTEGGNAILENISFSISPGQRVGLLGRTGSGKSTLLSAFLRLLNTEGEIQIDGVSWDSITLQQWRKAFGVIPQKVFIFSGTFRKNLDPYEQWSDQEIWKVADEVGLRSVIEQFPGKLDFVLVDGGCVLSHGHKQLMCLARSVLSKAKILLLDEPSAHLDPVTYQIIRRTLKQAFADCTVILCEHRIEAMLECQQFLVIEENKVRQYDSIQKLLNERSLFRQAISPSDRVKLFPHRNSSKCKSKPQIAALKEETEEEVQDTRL
For each of the molecules below, state its Emax.

Input: State the measured Emax (ΔF508-CFTR (Homo sapiens, UniProt P13569, DEL508-508)) of CC(C)(C)COC(=O)NCC(C)(C)c1ccc(NC(=O)c2c[nH]c3ccccc3c2=O)cc1
Output: 25 to 100%

Input: Write Emax of Cc1ccc(NC(=O)c2c[nH]c3ccccc3c2=O)nc1 ; system used: ΔF508-CFTR (Homo sapiens, UniProt P13569, DEL508-508)
Output: < 25%

Input: Provide measured Emax on ΔF508-CFTR (Homo sapiens, UniProt P13569, DEL508-508) for O=C(Nc1cccc(C(F)(F)F)c1)c1c[nH]c2ccccc2c1=O please.
Output: 25 to 100%

Input: Identify measured Emax obtained with ΔF508-CFTR (Homo sapiens, UniProt P13569, DEL508-508) for CC(C)c1ccc(NC(=O)c2c[nH]c3cccc(O)c3c2=O)cc1O .
Output: 25 to 100%

Input: Report Emax on ΔF508-CFTR (Homo sapiens, UniProt P13569, DEL508-508) for this entry: Cn1cc(C(=O)Nc2ccccc2)c(=O)c2ccccc21
Output: < 25%

---

Hi there, I'd appreciate the recorded Emax for every entry that follows.
target: ΔF508-CFTR (Homo sapiens, UniProt P13569, DEL508-508); construct: expressed in transfected cells; assay: Membrane potential optical assay (FRET voltage-sensor dyes, VIPR), identification of potentiator compounds; format: cell-based; conditions: Table 3; assay not given; read-out: % Activity (% Efficacy, relative efficacy)

Input: Using ΔF508-CFTR (Homo sapiens, UniProt P13569, DEL508-508) as the test system, report measured Emax of CCOC(=O)c1cc2cc[nH]c2cc1NC(=O)c1c[nH]c2ccccc2c1=O .
Output: 25 to 100%

Input: Fill: Emax (ΔF508-CFTR (Homo sapiens, UniProt P13569, DEL508-508)) for this compound CCOCCOc1cc(NC(=O)c2c[nH]c3ccccc3c2=O)ccc1C(C)(C)C
Output: 25 to 100%

Input: Param request: Emax | system ΔF508-CFTR (Homo sapiens, UniProt P13569, DEL508-508) | item O=C(Nc1ccc2nc[nH]c2c1)c1c[nH]c2ccccc2c1=O
Output: < 25%

Input: Look up and report measured Emax (ΔF508-CFTR (Homo sapiens, UniProt P13569, DEL508-508)) for the following compound: O=C(Nc1ccc2c(c1)C(O)CCC2)c1c[nH]c2ccccc2c1=O (stereo not drawn)
Output: 25 to 100%

Input: # lookup: ΔF508-CFTR (Homo sapiens, UniProt P13569, DEL508-508) Emax, key = O=C(Nc1ccc(S(=O)(=O)Nc2ccccn2)cc1)c1c[nH]c2ccccc2c1=O
Output: < 25%

Input: // fetch Emax for O=C(Nc1ccc(N2CCCC2)cc1C(F)(F)F)c1c[nH]c2ccccc2c1=O ; system: ΔF508-CFTR (Homo sapiens, UniProt P13569, DEL508-508)
Output: 25 to 100%

Input: Report Emax from ΔF508-CFTR (Homo sapiens, UniProt P13569, DEL508-508) testing of CCCOc1ccc(N)cc1NC(=O)c1c[nH]c2ccccc2c1=O
Output: 25 to 100%

Input: Provide the reported Emax (system: ΔF508-CFTR (Homo sapiens, UniProt P13569, DEL508-508)) for O=C(Nc1ccc2c(c1)CCCC2)c1c[nH]c2ccccc2c1=O
Output: 25 to 100%

Input: Specify Emax for CC1CCN(c2ccc(NC(=O)c3c[nH]c4ccccc4c3=O)c(C(F)(F)F)c2)C1 (stereo not drawn) , system ΔF508-CFTR (Homo sapiens, UniProt P13569, DEL508-508).
Output: 25 to 100%

---

Would you kindly list Emax for each of these compounds?
biological target: ΔF508-CFTR (Homo sapiens, UniProt P13569, DEL508-508); construct: expressed in transfected cells; experiment: Membrane potential optical assay (FRET voltage-sensor dyes, VIPR), identification of potentiator compounds; assay type: cell-based; details: Table 3; assay not given; read-out: % Activity (% Efficacy, relative efficacy)

Input: Report measured Emax; entry is O=C(Nc1ccccc1-c1cc2ccccc2[nH]1)c1c[nH]c2ccccc2c1=O
Output: 25 to 100%

Input: Indicate its recorded Emax; the compound in question is COc1ccc(NC(=O)c2c[nH]c3ccccc3c2=O)c(OC)n1
Output: 25 to 100%

Input: Give reported Emax value for O=C(Nc1ccccc1-c1ccc(Cl)cc1Cl)c1c[nH]c2ccccc2c1=O
Output: 25 to 100%

Input: Quote Emax reported for O=C(Nc1ccccc1-c1cccc(Cl)c1Cl)c1c[nH]c2ccccc2c1=O please.
Output: 25 to 100%

Input: Return the recorded Emax value; entry: CC(=O)c1cccc(NC(=O)c2c[nH]c3ccccc3c2=O)c1
Output: < 25%

Input: Report measured Emax; entry is CSc1ccc(-c2ccccc2NC(=O)c2c[nH]c3ccccc3c2=O)cc1
Output: 25 to 100%

Input: Give a short answer stating reported Emax for Cc1ccc(NC(=O)c2c[nH]c3ccccc3c2=O)c(C)c1 .
Output: 25 to 100%

Input: Determine its reported Emax: CC(C)(C)c1ccc(NC(=O)c2c[nH]c3ccccc3c2=O)cc1CN
Output: < 25%

Input: State, in one line, measured Emax of CC(C)c1ccc(-c2cc3cc[nH]c3cc2NC(=O)c2c[nH]c3ccccc3c2=O)cc1
Output: 25 to 100%

---

target: ΔF508-CFTR (Homo sapiens, UniProt P13569, DEL508-508); construct: expressed in transfected cells; assay: Membrane potential optical assay (FRET voltage-sensor dyes, VIPR), identification of potentiator compounds; format: cell-based; settings: Table 3; assay not given; read-out: % Activity (% Efficacy, relative efficacy)
attribute-measured: Emax

Input: Recall and state the measured Emax for CCOC(=O)Cc1c[nH]c2cc(NC(=O)c3c[nH]c4ccccc4c3=O)ccc12 .
Output: 25 to 100%

Input: In one line, give reported Emax of the entry O=C(Nc1cc2[nH]ccc2cc1C(=O)N1CCCCC1)c1c[nH]c2ccccc2c1=O .
Output: 25 to 100%

Input: Return value of Emax for input CC(C)COC(=O)NCC(C)(C)c1ccc(NC(=O)c2c[nH]c3ccccc3c2=O)cc1 , no commentary.
Output: 25 to 100%

Input: State, in one line, measured Emax of O=C(Nc1ccc(C(O)(C(F)(F)F)C(F)(F)F)cc1)c1c[nH]c2ccccc2c1=O
Output: 25 to 100%

Input: Give me measured Emax, please, for this compound: O=C(Nc1ccc(C(F)(F)F)cc1)c1c[nH]c2ccccc2c1=O
Output: 25 to 100%

Input: Entry O=C(Nc1ccc2cc[nH]c2c1)c1cnc2c(F)cc(F)cc2c1O needs its Emax filled in; supply it.
Output: 25 to 100%

Input: Query Emax for Cc1cccc2c(=O)c(C(=O)Nc3cc(O)c(C(C)(C)C)cc3F)c[nH]c12
Output: < 25%

Input: Provide Emax value for the following compound: O=C(Nc1ccc(C2CCCCC2)c(O)c1)c1c[nH]c2cccc(O)c2c1=O
Output: 25 to 100%

Input: Complete the entry with Emax for O=C(Nc1ccc2[nH]nnc2c1)c1c[nH]c2ccccc2c1=O
Output: < 25%

Input: Kindly indicate its recorded Emax. Item: O=C(Nc1cccc(S(=O)(=O)N2CCCCC2)c1)c1c[nH]c2ccccc2c1=O
Output: < 25%

Input: Tell me measured Emax for Cc1cccc2c(=O)c(C(=O)Nc3ccc(C(C)C)cc3C(F)(F)F)c[nH]c12 please.
Output: < 25%

Input: Give the value of Emax reported for the following: O=C(Nc1ccc2[nH]ncc2c1)c1c[nH]c2ccccc2c1=O
Output: 25 to 100%

Input: // fetch Emax given entry CN(C)c1cc(NC(=O)c2c[nH]c3ccccc3c2=O)ccc1C(C)(C)C
Output: 25 to 100%

Input: Give me measured Emax, please, for this compound: Cc1cc2cc(NC(=O)c3c[nH]c4ccccc4c3=O)ccc2[nH]1
Output: 25 to 100%

Input: Look up and report measured Emax for this entry: O=C(Nc1ccccn1)c1c[nH]c2ccccc2c1=O
Output: < 25%

Input: For the compound O=C(Nc1ccc(C(F)(F)F)c(O)c1)c1c[nH]c2cccc(O)c2c1=O , give its measured Emax value.
Output: 25 to 100%

Input: Check the records and state Emax for Nc1cc(NC(=O)c2c[nH]c3ccccc3c2=O)ccc1OC(F)(F)F
Output: 25 to 100%

Input: Name the recorded Emax of the compound listed here: CC(C)(C)c1cc(C(C)(C)C)c(NC(=O)c2c[nH]c3cccc(O)c3c2=O)cc1O
Output: 25 to 100%

Input: Check the records and state Emax for COC(=O)Nc1ccc(C(C)C)c(NC(=O)c2c[nH]c3ccccc3c2=O)c1
Output: 25 to 100%

Input: Give Emax for the following compound: COc1cc(NC(=O)c2c[nH]c3ccccc3c2=O)c(C(F)(F)F)cc1C(C)(C)C
Output: 25 to 100%

Input: State, in one line, measured Emax of O=C(Nc1ccc(S(=O)(=O)N2CCOCC2)cc1)c1c[nH]c2ccccc2c1=O
Output: 25 to 100%
